Some binders, each annotated with its measured MFI @ 10 ug/ml.
Tested System: T1, B7-H3 on B7-H3-expressing CHO cells (Genescript) (UniProt Q5ZPR3 29-534, limits assumed)
T1 construct: whole, on cells; also called CHO-K1/B7-H3; MFI B7-H3
T1 sequence (looked up): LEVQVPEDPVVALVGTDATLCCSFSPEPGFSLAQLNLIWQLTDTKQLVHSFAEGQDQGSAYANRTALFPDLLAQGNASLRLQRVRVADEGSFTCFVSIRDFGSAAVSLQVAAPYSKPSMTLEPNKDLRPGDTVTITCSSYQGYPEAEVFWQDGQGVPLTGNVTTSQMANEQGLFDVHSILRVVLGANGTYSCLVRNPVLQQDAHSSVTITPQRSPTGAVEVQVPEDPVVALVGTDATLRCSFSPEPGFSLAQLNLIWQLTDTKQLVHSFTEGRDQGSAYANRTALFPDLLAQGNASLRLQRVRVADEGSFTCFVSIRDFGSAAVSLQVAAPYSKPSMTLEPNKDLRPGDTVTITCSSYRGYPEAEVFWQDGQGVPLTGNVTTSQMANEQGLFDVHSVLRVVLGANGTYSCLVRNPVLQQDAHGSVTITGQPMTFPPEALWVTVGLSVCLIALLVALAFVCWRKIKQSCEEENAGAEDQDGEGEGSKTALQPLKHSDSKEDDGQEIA
Procedure Summary: flow cytometry, B7-H3-expressing CHO cells, 10 ug/ml
Outcome Measure: MFI @ 10 ug/ml (MFI)

{"Binder": "40633p1.2.C11 (scFv, V domains shown, Tested as scFv-Fc (Expi293 supernatant)) VH: EVQLLESGGGLVQPGGSLRLSCAASGFTFSSYWMSWVRQAPGKGLEWVAGINRNGGSTYYADSVKGRFTISRDNSENTLYLQVNSLRAEDTAVYYCARWNDYDIMDVWGQGTTVTVSS VL: QSVLTQPSSASGTPGQRVTISCSGSSSNVGRRAVNWYQQLPGTAPKLLISNSQRPSGVPDRFSGSKSGTSASLAISGLQSEDEADYYCATWDASLNSWVFGGGTKLTVL", "Outcome Measure": "MFI @ 10 ug/ml", "Quantitative Result": 18300}
{"Binder": "40579p1.D8 (scFv, V domains shown, Tested as scFv-Fc (Expi293 supernatant)) VH: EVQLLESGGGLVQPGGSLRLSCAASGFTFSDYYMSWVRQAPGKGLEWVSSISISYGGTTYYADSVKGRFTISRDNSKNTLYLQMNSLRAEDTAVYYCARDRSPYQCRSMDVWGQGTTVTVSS VL: EIVLTQSPGTLSLSPGERATLSCRASQSIRSDLAWYQQKPGQAPRLLIYNTVTRATGVPDRFSGSGSGTEFTLTISSLQSEDFAVYYCQQYNSWPPLTFGGGTKVEIK", "Outcome Measure": "MFI @ 10 ug/ml", "Quantitative Result": 40800}
{"Binder": "40579p1.H11 (scFv, V domains shown, Tested as scFv-Fc (Expi293 supernatant)) VH: EVQLLESGGGLVQPGGSLRLSCAASGFTFDDYGMSWVRQAPGKGLEWVSAIRSKASSYATYYADSVKGRFTVSRDNSENTLYLQMNSLRAEDTAVYYCAKHRSNYYFMDVWGQGTTVTVSS VL: EIVLTQSPGTLSLSPGERATLSCRASQSVGSDLAWYQQRPGQAPRLLIYAASSRATDIPDRFSGSGSGTDFTLTISSLQSEDFAVYYCQQYYSWPPLTFGGGTKVEIK", "Outcome Measure": "MFI @ 10 ug/ml", "Quantitative Result": 11600}
{"Binder": "40511p1.1.D6 (scFv, V domains shown, Tested as scFv-Fc (Expi293 supernatant)) VH: DVQLVESGGGVVRPGESLTLSCAASGFTINSYAVSWVRQAPGEGLEWVSGISGSGVRYYADSVKGRFTISRDNSNNTLYLQMNSLRAEDTAVYYCARSNKVTWNNFFDYWGLGTLVTVSS VL: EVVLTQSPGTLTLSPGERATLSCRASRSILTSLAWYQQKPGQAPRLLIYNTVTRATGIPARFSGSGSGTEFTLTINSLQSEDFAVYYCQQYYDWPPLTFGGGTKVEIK", "Outcome Measure": "MFI @ 10 ug/ml", "Quantitative Result": 84200}
{"Binder": "40633p1.1.A11 (scFv, V domains shown, Tested as scFv-Fc (Expi293 supernatant)) VH: EVQLLESGGDLVQPGGSLRLSCAASGFTFNTYWMNWVRQAPGKGLEWVAGINSKGGVTYYADSVKGRFTISRDNSKNTLYLQMNSLRAEDTAVYYCADWNDYDIMDVWGQGTTVTVSS VL: QSVLTQPPSASGTPGQTITISCSGSSSNVGRRTVNWYQQLPGTAPKLLIYTNAQRPSGVPDRFSGSKSGTSASLAISGLQSEDEADYYCATWDDSLNAWVFGGGTKLTVL", "Outcome Measure": "MFI @ 10 ug/ml", "Quantitative Result": 64800}
{"Binder": "40511p1.1.H5 (scFv, V domains shown, Tested as scFv-Fc (Expi293 supernatant)) VH: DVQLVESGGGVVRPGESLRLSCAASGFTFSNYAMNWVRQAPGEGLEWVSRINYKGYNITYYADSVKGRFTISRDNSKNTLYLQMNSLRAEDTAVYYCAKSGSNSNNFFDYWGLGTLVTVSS VL: EIVLTQSPGTLSLSPGERATLSCRASQSIRSDLAWYQQKPGQAPRLLIYGAASRATGIPARFSGSGSGTEFTLTISSLQSGDFAVYYCQQYNSWPPLTFGGGTKVEIK", "Outcome Measure": "MFI @ 10 ug/ml", "Quantitative Result": 62200}
{"Binder": "40579p1.H6 (scFv, V domains shown, Tested as scFv-Fc (Expi293 supernatant)) VH: EVQLLESGGGLVQPGGSLRLSCAASGFTVNNAWMSWVRQAPGKGLEWVSAISYGGSIYYADSVKGRFTISRDNSKNTLYLQMNSLRAEDTAVYYCAKHRSTTYNGMDVWGQGTTVTVSS VL: EIVLTQSPGTLSLSPGERATLSCRASQSVGSFLAWYQQKPGQAPRLLIYGANTRAAGIPDRFRGSGNGTDFTLTISSLQSEDFAVYYCQQYYDWPPLTFGGGTKVEIK", "Outcome Measure": "MFI @ 10 ug/ml", "Quantitative Result": 67600}
{"Binder": "40633p1.1.A7 (scFv, V domains shown, Tested as scFv-Fc (Expi293 supernatant)) VH: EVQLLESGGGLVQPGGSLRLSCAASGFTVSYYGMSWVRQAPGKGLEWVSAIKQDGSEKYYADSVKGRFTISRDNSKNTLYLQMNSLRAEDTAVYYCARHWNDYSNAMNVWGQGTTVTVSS VL: QSVLTQPPSASGTPGQRVTISCSGSTSNIGRESVYWYQQLPGTAPKLLIYTIDQRPSGVPDRFSGSKSGTSASLAISGLQSEDEAVYYCASWDASLNGWVFGGGTKLTVL", "Outcome Measure": "MFI @ 10 ug/ml", "Quantitative Result": 76400}
{"Binder": "40633p1.1.A6 (scFv, V domains shown, Tested as scFv-Fc (Expi293 supernatant)) VH: EVQLLESGGGLVQPGGSLRLSCAASGFSFSNYDMSWVRQAPGKGLEWVAGIRSGSRTYYADSVKGRFTISRDNSKNTLYLQMNSLRAEDTATYYCGRYFNMDVWGQGTTVTVSS VL: QSVLTQPPSASGTPGQRVTISCSGSTFNIGTNLVHWYQQLPGTAPKLLIYLTDRRPSGVPDRFSGSKSGTSASLAISGLQSEDEANYYCATWDDSLNSFLFGGGTKLTVL", "Outcome Measure": "MFI @ 10 ug/ml", "Quantitative Result": 67800}
{"Binder": "40633p1.1.G5 (scFv, V domains shown, Tested as scFv-Fc (Expi293 supernatant)) VH: EVQLLESGGGLVQPGGSLRLSCAASGFIVNYYGMSWVRQPPGKGLEWVSAIKQDGSEKYYADSVKGRFTISRDNSKTTLYLQMNSLRAEDTAVYYCARHWNDYSNGMNVWGQGTTVTVSS VL: QSVLTQPPSASGTPGQRVTISCSGSWSNIGSYNSHWYQKLPGTAPKLLIYTTDRRPSGVPDRFSGSKSGTSASLAISGLQSEDEADYYCGTWDDSLNVWVFGGGTKLTVL", "Outcome Measure": "MFI @ 10 ug/ml", "Quantitative Result": 41000}
